# assay.notes: Cytotoxicity against golden hamster BHK-21 cells incubated for 24 hrs by ATP-lite assay
# Type: toxicity, cell-based, Mesocricetus auratus
measurement.kind: CC50 at 24 h

Task item: # get_value(readout='CC50 at 24 h', item= "Clc1cc(OCc2nnc3sc(Cc4ccccc4)nn23)c(Cl)cc1OCc1nnc2sc(Cc3ccccc3)nn12" )
Reply: > 200 µM

* * *

# test.target: Prothrombin (Homo sapiens, UniProt P00734)
pKi: −log10 of the molar value.
measurement.kind: pKi

Task item: Enter reported pKi observed with Prothrombin (Homo sapiens, UniProt P00734) for "N=C(N)N[C@H]1CC[C@H](CNC(=O)[C@H](CCCCN)NC(=O)[C@H](CCCCN)NC(=O)Cc2ccc(Cl)c(Cl)c2)CC1"
Reply: < 3.30

* * *

# Tested on: West Nile virus
# assay.notes: Antiviral activity against West Nile virus NY99 infected in human A549 cells measured after 48 hrs by plaque reduction assay
# Format: functional, organism-based
# condition.parameters: NY99, A549, 48 h
measurement.kind: EC50 (nM)
Report the value in nM with no unit label.

Task item: Looking for the measured EC50 of O=C1OC2(c3ccccc31)c1cc(I)c(O)c(I)c1Oc1c2cc(I)c(O)c1I [ERYTHROSINE] , can you help?
Reply: 660

* * *

# assay.notes: Inhibition of Dengue virus 4 NS2B-NS3 protease using Benzoyl-Nle-Lys-Arg-Arg-AMC as substrate preincubated for 1 hrs followed by substrate addition and measured after 10 mins by fluorescence based plate reader analysis
# Parameters: species or system dengue virus type 4
*1 amine or outer side, *2 acyl side, *3 side chain or, on linkers, in order; H or OH if unused. Where a SMILES comes first, the peptide text is derived from it. [ ]: non-standard residue; d: D form. X1 = N=C(N)N[C@@H](CCCCN[*:1])C(=O)[*:2]; βAla = NCCC(=O)O
measurement.kind: pKi
FYI, pKi means -log10 of a concentration in mol per litre.

Task item: Requested read-out: pKi. Entry: N=C(N)N[C@H]1CCCCNC(=O)[C@H](CCCCN)NC(=O)[C@H](CCCCN)NC(=O)CCNC(=O)CNC(=O)CNC1=O (cyclo(GG[βAla]KK[X1]))
Reply: 6.80
